Measured Kd by item
TARGET_DESC: T1, human LAG-3 protein (human, UniProt P18627, labeled with Red-NHS647 dye (in the MST assay))
T1 sequence: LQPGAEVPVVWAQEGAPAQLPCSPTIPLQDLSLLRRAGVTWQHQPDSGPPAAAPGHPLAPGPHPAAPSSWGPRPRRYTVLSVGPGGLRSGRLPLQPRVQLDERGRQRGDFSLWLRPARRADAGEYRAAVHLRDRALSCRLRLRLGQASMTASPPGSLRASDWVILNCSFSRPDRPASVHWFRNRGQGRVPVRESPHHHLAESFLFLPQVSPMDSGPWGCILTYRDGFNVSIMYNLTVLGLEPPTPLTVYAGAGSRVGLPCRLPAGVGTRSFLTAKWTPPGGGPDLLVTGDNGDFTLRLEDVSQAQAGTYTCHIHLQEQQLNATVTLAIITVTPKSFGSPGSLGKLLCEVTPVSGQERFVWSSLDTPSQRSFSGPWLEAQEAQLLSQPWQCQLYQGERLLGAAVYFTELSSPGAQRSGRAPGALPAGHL
TEST_METHOD_NOTES: MST
Bridge positions count the residues as written; N and C are the ends. Ends that are not written are not given here.
// return numeric value only (unit: µM, not printed)

BINDER | Kd (µM)
CNWMINKEC (disulfide 1-9) [cyclic peptide C19] | 5.05

Consider the record given below.
Enquiry: Look up Kd: CNMHTPMVC (disulfide 1-9) [cyclic peptide C17]
Return: 1.83
